# TARGET_SYSTEM: Aurora A (Homo sapiens)
# Construct: purchased Promega
# Sequence (O14965 whole entry): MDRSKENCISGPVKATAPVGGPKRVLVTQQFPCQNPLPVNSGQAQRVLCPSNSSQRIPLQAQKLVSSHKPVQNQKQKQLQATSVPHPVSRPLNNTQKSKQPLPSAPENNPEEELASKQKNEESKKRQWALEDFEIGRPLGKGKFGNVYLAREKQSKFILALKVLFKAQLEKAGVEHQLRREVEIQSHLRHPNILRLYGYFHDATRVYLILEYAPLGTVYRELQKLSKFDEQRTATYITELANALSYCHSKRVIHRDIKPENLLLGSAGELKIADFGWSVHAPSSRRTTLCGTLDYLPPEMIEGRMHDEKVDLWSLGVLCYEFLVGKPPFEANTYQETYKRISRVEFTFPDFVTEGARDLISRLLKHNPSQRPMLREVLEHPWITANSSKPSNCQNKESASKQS
# ASSAY_COMMENT: ADP-Glo kinase assay, Aurora A
# Assay type: biochemical
# Method: The ADP-Glo kinase assay (Promega, Madison, WI, USA) was used to screen compounds 5, 8–10, 14, 17, 19 and 24 for the tyrosine kinase (Kinase Selectivity Profiling System TK-1, Promega, Madison, WI, USA) and serine/threonine kinase (Kinase Selectivity Profiling System Other/CK-1, Promega, Madison, WI, USA) inhibition effects according to the manufacturer’s technical manual. The luminescence data were analyzed as described in our prior work. […]
READOUT_KIND: inhibition at 10 µM (%)

# COMPOUND, TARGET_SYSTEM, inhibition at 10 µM (%)
rows = [
    ("Cc1cn(-c2cc(NC(=O)c3cccc(C(=O)Nc4cccc(C(F)(F)F)c4)c3)cc(C(F)(F)F)c2)cn1 [Compound 5]", "Aurora A (Homo sapiens)", 0),
    ("O=C(Nc1cccc(C(F)(F)F)c1)c1cccc(C(=O)N2CCN(C(=O)c3cccc(F)c3)CC2)c1 [Compound 9]", "Aurora A (Homo sapiens)", 0),
    ("Cc1cn(-c2cc(NC(=O)c3cccc(C(=O)Nc4cc(-n5cnc(C)c5)cc(C(F)(F)F)c4)c3)cc(C(F)(F)F)c2)cn1 [Compound 10]", "Aurora A (Homo sapiens)", 0),
    ("O=C(Nc1cccc(C(F)(F)F)c1)c1cccc(C(=O)N2CCN(C(=O)c3ccccc3F)CC2)c1 [Compound 8]", "Aurora A (Homo sapiens)", 0),
]

Attribution: paper PMC10046946
